Recorded values, source patent US20030114362A1.

Test system: A431 and Panc-1
Conditions: number of cell deaths after 6 h of incubation
Starred links: 1 amine or outer side, 2 acyl side, 3 side chain; linkers in the order of their positions; H or OH if unused. Non-standard residues stand in square brackets, D forms with d. Residues, ends and D or L forms follow the SMILES beside them. ξ: configuration not given here. *: point of attachment. X3 = CC1(C)O[C@H]2O[C@H](C(=O)[*:2])[C@@H](N[*:1])[C@H]2O1; X2 = CC1(C)OC2[C@H](O[C@H](C(=O)[*:2])[C@H]2N[*:1])O1; Trt = c1ccc(C(c2ccccc2)(c2ccccc2)*)cc1; ξW = NC(Cc1c[nH]c2ccccc12)C(=O)O; Thr(3ξ) = CC(O)[C@H](N)C(=O)O; ξY = NC(Cc1ccc(O)cc1)C(=O)O; Nle = CCCC[C@H](N)C(=O)O; ξK = NCCCCC(N)C(=O)O; Bn = c1ccc(C*)cc1

compound: CC(OCc1ccccc1)[C@@H]1NC(=O)C(CCCCN)NC(=O)C(Cc2c[nH]c3ccccc23)NC(=O)C(Cc2ccc(O)cc2)NC(=O)[C@H]2O[C@@H]3OC(C)(C)OC3[C@@H]2NC1=O (stereo partly drawn) [SGnc 38, cyclo[-D-Trp-Lys-Thr(OBzl)-Z1-Tyr-]] (cyclo([Thr(3ξ)](Bn)[X2][ξY][ξW][ξK]))
Necrosis: some
--
compound: CCCC[C@@H]1NC(=O)[C@@H](Cc2c[nH]c3ccccc23)NC(=O)[C@H](Cc2ccc(O)cc2)NC(=O)[C@H]2O[C@@H]3OC(C)(C)O[C@@H]3[C@@H]2NC(=O)[C@H]([C@@H](C)OC(c2ccccc2)(c2ccccc2)c2ccccc2)NC1=O [SGnc 7, cyclo[-D-Trp-Nle-Thr(OTrt)-Z1-Tyr-]] (cyclo([Nle]T(Trt)[X3]Y[dW]))
Necrosis: none

* * *

Test system: A431 and Panc-1
Conditions: number of cell deaths after 6 h of incubation
Starred links: 1 amine or outer side, 2 acyl side, 3 side chain; linkers in the order of their positions; H or OH if unused. Non-standard residues stand in square brackets, D forms with d. Residues, ends and D or L forms follow the SMILES beside them. ξ: configuration not given here. *: point of attachment. X1 = CC1(C)OC2[C@H](OC(C(O)C(=O)[*:2])[C@H]2N[*:1])O1; Trt = c1ccc(C(c2ccccc2)(c2ccccc2)*)cc1; Thr(3ξ) = CC(O)[C@H](N)C(=O)O; ξF = NC(Cc1ccccc1)C(=O)O; ξK = NCCCCC(N)C(=O)O

compound: CC(OC(c1ccccc1)(c1ccccc1)c1ccccc1)[C@@H]1NC(=O)C(CCCCN)NC(=O)[C@@H](Cc2csc3ccccc23)NC(=O)C(Cc2ccc(O)cc2)NC(=O)[C@H]2O[C@@H]3OC(C)(C)OC3[C@@H]2NC1=O (stereo partly shown)
Necrosis: none
--
compound: CC(OC(c1ccccc1)(c1ccccc1)c1ccccc1)[C@@H]1NC(=O)C(CCCCN)NC(=O)[C@@H](Cc2c[nH]c3ccccc23)NC(=O)C(Cc2ccccc2)NC(=O)C(O)C2O[C@@H]3OC(C)(C)OC3[C@@H]2NC1=O (stereo partly drawn) [SGnc 18, c[-D-Trp-Lys-Thr(OTrt)-Z2-Phe-]] (cyclo([Thr(3ξ)](Trt)[X1][ξF][dW][ξK]))
Necrosis: some
--
compound: C[C@@H](OC(c1ccccc1)(c1ccccc1)c1ccccc1)C1NC(=O)[C@H](CCCCN)NC(=O)[C@H](Cc2csc3ccccc23)NC(=O)[C@H](Cc2ccc(O)cc2)NC(=O)[C@H]2O[C@@H]3OC(C)(C)OC3[C@@H]2NC1=O (stereo partly shown)
Necrosis: some
